Value source: paper PMC9516332

- assay-system: panel of 255 wild-type kinases (Homo sapiens, UniProt Q9H4A3)
- Sequence (Q9H4A3 whole entry): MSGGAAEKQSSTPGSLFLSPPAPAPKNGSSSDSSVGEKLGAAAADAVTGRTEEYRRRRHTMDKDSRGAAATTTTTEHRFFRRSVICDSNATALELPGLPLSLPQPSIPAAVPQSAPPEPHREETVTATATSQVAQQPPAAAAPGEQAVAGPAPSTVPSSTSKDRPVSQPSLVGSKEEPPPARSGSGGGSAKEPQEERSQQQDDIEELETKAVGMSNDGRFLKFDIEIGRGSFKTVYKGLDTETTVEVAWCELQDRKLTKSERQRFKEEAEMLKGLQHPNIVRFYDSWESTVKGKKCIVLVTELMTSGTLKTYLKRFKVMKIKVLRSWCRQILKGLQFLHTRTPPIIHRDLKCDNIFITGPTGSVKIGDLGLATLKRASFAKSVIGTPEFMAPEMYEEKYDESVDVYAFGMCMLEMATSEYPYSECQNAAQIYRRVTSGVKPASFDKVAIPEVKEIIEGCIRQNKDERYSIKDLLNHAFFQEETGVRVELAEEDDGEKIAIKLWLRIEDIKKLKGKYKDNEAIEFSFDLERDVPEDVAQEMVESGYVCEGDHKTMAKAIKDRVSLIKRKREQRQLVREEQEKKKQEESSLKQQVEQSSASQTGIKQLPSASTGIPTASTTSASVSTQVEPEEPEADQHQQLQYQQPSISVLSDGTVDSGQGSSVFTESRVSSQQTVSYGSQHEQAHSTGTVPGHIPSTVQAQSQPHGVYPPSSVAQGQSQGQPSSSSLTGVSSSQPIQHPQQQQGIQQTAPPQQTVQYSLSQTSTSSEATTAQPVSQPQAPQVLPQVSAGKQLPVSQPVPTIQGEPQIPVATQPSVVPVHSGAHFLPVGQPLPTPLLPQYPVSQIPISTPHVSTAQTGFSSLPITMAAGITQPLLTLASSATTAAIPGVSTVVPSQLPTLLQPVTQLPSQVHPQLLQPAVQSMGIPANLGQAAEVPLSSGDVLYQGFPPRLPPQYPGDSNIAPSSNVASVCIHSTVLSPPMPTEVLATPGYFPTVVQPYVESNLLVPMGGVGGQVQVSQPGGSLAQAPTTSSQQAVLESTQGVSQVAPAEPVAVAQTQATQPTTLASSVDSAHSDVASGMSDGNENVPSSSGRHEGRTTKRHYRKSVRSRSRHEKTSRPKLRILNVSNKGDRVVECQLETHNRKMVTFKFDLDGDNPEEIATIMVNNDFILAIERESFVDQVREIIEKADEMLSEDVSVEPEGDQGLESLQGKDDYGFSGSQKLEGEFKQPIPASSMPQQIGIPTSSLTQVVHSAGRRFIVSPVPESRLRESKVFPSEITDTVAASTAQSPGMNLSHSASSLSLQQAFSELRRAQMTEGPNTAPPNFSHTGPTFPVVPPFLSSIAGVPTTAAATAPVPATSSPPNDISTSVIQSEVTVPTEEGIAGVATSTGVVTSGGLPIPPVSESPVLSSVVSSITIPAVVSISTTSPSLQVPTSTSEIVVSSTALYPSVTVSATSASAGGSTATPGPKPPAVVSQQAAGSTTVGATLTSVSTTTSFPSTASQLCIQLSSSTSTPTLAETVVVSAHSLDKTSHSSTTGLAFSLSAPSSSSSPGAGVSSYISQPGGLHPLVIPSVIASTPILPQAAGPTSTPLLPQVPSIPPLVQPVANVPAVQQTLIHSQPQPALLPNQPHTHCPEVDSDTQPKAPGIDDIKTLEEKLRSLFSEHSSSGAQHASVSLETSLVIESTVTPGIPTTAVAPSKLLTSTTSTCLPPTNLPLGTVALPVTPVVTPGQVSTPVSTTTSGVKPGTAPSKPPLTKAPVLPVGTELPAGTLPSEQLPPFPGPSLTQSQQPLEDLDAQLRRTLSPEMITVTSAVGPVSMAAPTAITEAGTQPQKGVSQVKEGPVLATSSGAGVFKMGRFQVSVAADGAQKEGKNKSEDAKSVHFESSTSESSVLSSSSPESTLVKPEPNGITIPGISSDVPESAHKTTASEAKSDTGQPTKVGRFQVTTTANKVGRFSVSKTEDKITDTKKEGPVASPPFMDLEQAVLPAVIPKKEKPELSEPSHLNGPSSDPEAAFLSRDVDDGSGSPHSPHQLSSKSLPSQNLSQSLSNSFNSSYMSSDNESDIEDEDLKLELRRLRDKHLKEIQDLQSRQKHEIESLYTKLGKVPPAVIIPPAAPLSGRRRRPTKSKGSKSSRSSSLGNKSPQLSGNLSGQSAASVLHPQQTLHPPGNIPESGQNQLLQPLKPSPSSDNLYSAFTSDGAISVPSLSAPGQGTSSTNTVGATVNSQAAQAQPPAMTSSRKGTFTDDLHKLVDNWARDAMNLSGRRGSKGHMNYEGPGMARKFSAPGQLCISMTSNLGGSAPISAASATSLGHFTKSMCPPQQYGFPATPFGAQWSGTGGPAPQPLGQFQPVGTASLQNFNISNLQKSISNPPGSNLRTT
- method-description: Kinase panel profiling at 1 µmol/L (MSA or IMAP), percentage inhibition
- Type: biochemical
- run-parameters: kinase WNK1; 1 µmol/L single concentration; read-out: %-inhibition at 1 µmol/L, WNK1
Measured inhibition at 1 µM accompanies every entry in the list below.
readout: inhibition at 1 µM (%)

>>> df
                               given_smiles             readout  measured
0  C=CC(=O)N1CCC([C@@H]2CCNc3c(C(N)=O)c(-c4ccc(Oc5ccccc5)cc4)nn32)CC1  inhibition at 1 µM         0
1  CCn1c(=O)c(-c2cc(NC(=O)Nc3ccccc3)c(F)cc2Br)cc2cnc(NC)cc21  inhibition at 1 µM        -5
2  CCc1nc(C(N)=O)c(Nc2ccc(N3CCC(N4CCN(C)CC4)CC3)c(OC)c2)nc1NC1CCOCC1  inhibition at 1 µM        -3
3  CCN1C(=O)N(c2c(F)c(OC)cc(OC)c2F)Cc2cnc3[nH]c(CN4CCOCC4)cc3c21  inhibition at 1 µM     -3.59
4  Cc1nc(NC(=O)N2CCC[C@H]2C(N)=O)sc1-c1ccnc(C(C)(C)C(F)(F)F)c1  inhibition at 1 µM        -4
5  C[C@H](Nc1ncnc2nc[nH]c12)c1cc2cccc(Cl)c2c(=O)n1-c1ccccc1  inhibition at 1 µM        -3
6  COc1ccc(CN2C3CC2CN(c2ccc(-c4cc(OCC(C)(C)O)cn5ncc(C#N)c45)cn2)C3)cn1  inhibition at 1 µM       -10
7  COc1cc2ncnc(Nc3ccc(F)c(Cl)c3)c2cc1NC(=O)/C=C/CN1CCCCC1  inhibition at 1 µM        -4
8  Cn1cc(-c2cc3c(N4CCN(c5ncc([C@@](C)(N)c6ccc(F)cc6)cn5)CC4)ncnn3c2)cn1  inhibition at 1 µM     -5.32
